# reported Emax; entries follow
# Tested on: beta-TC6 cells
# procedure_summary: Insulin HTRF assay, relative activity Ar normalized to sunitinib
# Assay type: cell-based
# assay_context: Mus musculus, normalized to positive control sunitinib (5 µM = 100%), Table 10

# example entries with known answers
> print(dat)
                         compound.structure     target.desc  measured.metric   reported
1  COc1ccc(CNc2ccc3ncc(-c4ccc5[nH]ccc5c4)n3n2)cc1  beta-TC6 cells             Emax  20 to 50%
2  CC(=O)Nc1cccc(-c2cnc3ccc(-c4cccnc4)nn23)c1  beta-TC6 cells             Emax  10 to 20%

Query: Dear colleague, I am looking for the recorded Emax of the following molecule: CS(=O)(=O)Nc1cccc(-c2cn3c(-c4ccc5ncccc5c4)cnc3cn2)c1
Reply: 20 to 50%

Query: Now try Clc1cccc(-c2nnc3ccc(-c4cncnc4)cn23)c1 .
Reply: 20 to 50%

Query: OCc1ccc(-c2cn3c(-c4cccc(F)c4)cnc3cn2)cc1 ?
Reply: 20 to 50%

Query: // query: OCc1ccc(-c2ccc3nnc(-c4ccncc4)n3c2)cc1
Reply: 20 to 50%

---

# System: beta-TC6 cells
# procedure_summary: Insulin HTRF assay, relative activity Ar normalized to sunitinib
# Format: cell-based
# assay_context: Mus musculus, normalized to positive control sunitinib (5 µM = 100%), Table 10
measured_metric: Emax

> print(dat)
                         compound.structure     target.desc  measured.metric    reported
1  CN1CCN(C(=O)c2cccc(-c3ccc4nnc(-c5ccc6nccnc6c5)n4c3)c2)CC1  beta-TC6 cells             Emax   20 to 50%
2  COc1cccc(CC(=O)Nc2cnc3cnc(-c4ccc5[nH]ccc5c4)cn23)c1  beta-TC6 cells             Emax   10 to 20%
3  Cc1cccc(-c2cn3c(-c4ccc(CCC(=O)O)cc4)cnc3cn2)c1C  beta-TC6 cells             Emax  50 to 100%

Query: Find the recorded Emax belonging to CS(=O)(=O)Nc1cccc(-c2cnc3ccc(Cc4ccc(F)cc4)nn23)c1 and report it.
Reply: 10 to 20%

Query: Repeat for the following compound: CN(C)CCCOc1ccc(-c2cn3c(-c4ccc(N(C)C)cc4)cnc3cn2)cn1
Reply: 50 to 100%

Query: Next: CN(C)CCCNC(=O)c1ccc(-c2cn3c(-c4ccc5c(ccn5C)c4)cnc3cn2)cc1
Reply: 20 to 50%

---

Overview of reported Emax across a group of compounds:
# Tested on: beta-TC6 cells
# procedure_summary: Insulin HTRF assay, relative activity Ar normalized to sunitinib
# Format: cell-based
# assay_context: Mus musculus, normalized to positive control sunitinib (5 µM = 100%), Table 10

Query: Need Emax, item CN(C)c1cccc(-c2cn3c(NC(=O)c4ccccc4)cnc3cn2)c1 [compound 268]
Reply: 50 to 100%

---

# Tested on: beta-TC6 cells
# procedure_summary: Insulin HTRF assay, relative activity Ar normalized to sunitinib
# Assay type: cell-based
# assay_context: Mus musculus, normalized to positive control sunitinib (5 µM = 100%), Table 10
measured_metric: Emax

Here's what some known entries look like.
> print(dat)
                                   compound    reported
1  COc1ccc(-c2ccc3nnc(-c4ccccc4)n3c2)c(C)c1      ≥ 100%
2  CN1CCN(C(=O)c2ccc(-c3cnc4cnc(/C=C/c5ccccc5)cn34)cc2)CC1   10 to 20%
3      COc1cccc(-c2ccc3nnc(-c4cscn4)n3c2)c1  50 to 100%
4  CC(C)[C@@H](CO)Nc1ccc2ncc(-c3ccc(N)cc3)n2n1  50 to 100%
5  c1ccc(Cn2cc(-c3cn4c(-c5ccc6c(c5)OCO6)cnc4cn3)cn2)cc1  50 to 100%

Query: Any idea what its Emax is? The compound is OCc1cccc(-c2cnc3ccc(-c4cccc(Oc5ccccc5)c4)nn23)c1
Reply: 20 to 50%

Query: // repeat for OC1CCC(Nc2ccc3ncc(Br)n3n2)CC1 (stereo not drawn) and report
Reply: 10 to 20%

Query: Now the compound CC(=O)c1ccc(-c2cn3c(-c4ccc(C(=O)NC5CC5)cc4)cnc3cn2)s1
Reply: 20 to 50%

Query: Try this compound next: c1coc(-c2cn3c(-c4ccsc4)cnc3cn2)c1
Reply: 20 to 50%

Query: And COc1cc(-c2nnc3ccc(-c4cccc(F)c4)cn23)ccc1O ?
Reply: 50 to 100%

Query: And the next one, c1csc(-c2cnc3cnc(-c4ccsc4)cn23)c1 ?
Reply: 50 to 100%

Query: Please give the result for COc1cc(-c2cnc3cnc(-c4ccc(N5CCN(C)CC5)nc4)cn23)ccc1O too.
Reply: 20 to 50%
